Every entry's value here was drawn from paper PMC7066533.

measurement.target: UniProt:P41143
Sequence (P41143 whole entry): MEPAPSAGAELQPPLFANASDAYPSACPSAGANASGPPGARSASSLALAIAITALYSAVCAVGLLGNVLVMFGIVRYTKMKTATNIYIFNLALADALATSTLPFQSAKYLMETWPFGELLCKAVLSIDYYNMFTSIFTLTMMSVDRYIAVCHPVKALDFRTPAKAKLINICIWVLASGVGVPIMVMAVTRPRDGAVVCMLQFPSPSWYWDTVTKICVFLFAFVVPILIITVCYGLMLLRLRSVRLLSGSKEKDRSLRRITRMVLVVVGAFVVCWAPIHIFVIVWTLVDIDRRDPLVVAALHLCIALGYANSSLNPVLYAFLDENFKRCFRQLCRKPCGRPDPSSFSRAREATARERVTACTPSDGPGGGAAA
pKi: −log10 of the molar value. Square brackets hold non-standard residues; d marks the D form. Peptide text beside a SMILES is read from it. βAla = NCCC(=O)O
reported.property: pKi

Exercise: Provide pKi value for the following molecule: O=C1CNC(=O)[C@H](Cc2ccccc2)NC(=O)[C@@H](Cc2c[nH]c3ccccc23)NC(=O)CCN1 [LOR17, c[Phe-Gly-(β-Ala)-D-Trp]] (cyclo(FG[βAla][dW]))
Solution: < 4.00
